This collection of values is drawn from patent US20240360134A1.

Molecular target: His6-TEV-PDGFRβ (557-1016) (Homo sapiens (Human), UniProt P09619)
Sequence (P09619 whole entry, looked up): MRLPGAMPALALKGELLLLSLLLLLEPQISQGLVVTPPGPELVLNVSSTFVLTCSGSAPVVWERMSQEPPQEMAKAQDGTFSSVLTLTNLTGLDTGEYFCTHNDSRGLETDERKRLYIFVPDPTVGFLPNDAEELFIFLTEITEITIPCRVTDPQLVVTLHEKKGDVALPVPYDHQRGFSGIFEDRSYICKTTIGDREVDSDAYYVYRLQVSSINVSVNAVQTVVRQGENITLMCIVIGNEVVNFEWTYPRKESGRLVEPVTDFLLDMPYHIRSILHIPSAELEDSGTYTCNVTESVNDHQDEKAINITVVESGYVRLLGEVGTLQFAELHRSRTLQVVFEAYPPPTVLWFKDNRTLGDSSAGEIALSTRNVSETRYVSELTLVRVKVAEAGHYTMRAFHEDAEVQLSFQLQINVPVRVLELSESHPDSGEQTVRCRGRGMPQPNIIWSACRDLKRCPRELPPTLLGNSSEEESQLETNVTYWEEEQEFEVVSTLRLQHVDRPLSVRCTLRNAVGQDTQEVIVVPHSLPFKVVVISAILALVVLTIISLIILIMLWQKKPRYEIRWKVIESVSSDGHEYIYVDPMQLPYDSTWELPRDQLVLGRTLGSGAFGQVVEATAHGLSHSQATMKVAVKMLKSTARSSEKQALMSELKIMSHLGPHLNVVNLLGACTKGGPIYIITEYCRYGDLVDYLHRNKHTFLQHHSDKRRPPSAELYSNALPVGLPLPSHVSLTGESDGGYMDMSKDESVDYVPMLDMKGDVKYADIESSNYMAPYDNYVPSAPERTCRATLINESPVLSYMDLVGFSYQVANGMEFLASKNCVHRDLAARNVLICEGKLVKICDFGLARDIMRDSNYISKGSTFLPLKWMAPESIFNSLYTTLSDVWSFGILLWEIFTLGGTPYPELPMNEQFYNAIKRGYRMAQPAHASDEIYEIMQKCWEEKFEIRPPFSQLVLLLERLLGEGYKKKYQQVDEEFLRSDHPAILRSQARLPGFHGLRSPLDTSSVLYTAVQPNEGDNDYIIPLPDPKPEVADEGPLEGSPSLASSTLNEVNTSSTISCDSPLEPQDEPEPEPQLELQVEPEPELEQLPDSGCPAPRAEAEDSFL
Assay: PDGFRβ HTRF Assay
Type: biochemical
Conditions: 800 μM ATP, 0.5 μM TK-substrate biotin peptide, 30 min pre-incubation, 3 hours reaction; read-out: PDGFR HTRF IC50
experimental_readout: IC50 (nM)

>>> recorded_number("Cc1ncc(C(=O)NCCN2CCCC23CC3)cc1Nc1nn(C)c2nc(Nc3cncnc3)ncc12")
0.97
>>> recorded_number("Cc1cc(Nc2ncc3c(Nc4cc(C(=O)NCCN5CCC[C@@H]5C)cnc4C)nn(C)c3n2)n(C)n1")
2.63
>>> recorded_number("Cc1nn(C)cc1Nc1ncc2c(Nc3cc(C(=O)NCCN4CCC[C@@H]4C)cnc3C)nn(C)c2n1")
1.55
>>> recorded_number("Cc1ncc(C(=O)NCCN2CCC(F)(F)CC2)cc1Nc1nn(C)c2nc(Nc3cncnc3)ncc12")
0.65

----------
Molecular target: His6-TEV-PDGFRβ (557-1016) (Homo sapiens (Human))
Assay: PDGFRβ HTRF Assay
Assay type: biochemical
Conditions: 800 μM ATP, 0.5 μM TK-substrate biotin peptide, 30 min pre-incubation, 3 hours reaction; read-out: PDGFR HTRF IC50
Reported IC50 values for a set of compounds
experimental_readout: IC50 (nM)

>>> recorded_number("Cc1ncc(NC(=O)C2(C(=O)N3CCN(C)CC3)CC2)cc1Nc1nn(C)c2nc(Nc3cnn(C)c3)ncc12")
2.63
>>> recorded_number("Cc1ncc(C(=O)NCCN(C(C)C)C(C)C)cc1Nc1nn(C)c2nc(Nc3cncnc3)ncc12")
1.01
>>> recorded_number("COC(=O)C1(c2cccc(Nc3ncc4c(Nc5cc(C(=O)NCCN6CCCC6(C)C)cnc5C)nn(C)c4n3)c2)CC1")
0.79
>>> recorded_number("C[C@H]1CCCN1CCNC(=O)c1ccc(F)c(Nc2nn(C)c3nc(Nc4cnn(C)c4)ncc23)c1")
0.13
>>> recorded_number("Cc1ncc(C(=O)NCCN2CCCC(F)(F)C2)cc1Nc1nn(C)c2nc(Nc3cncnc3)ncc12")
0.57
>>> recorded_number("Cc1ccc(C(=O)NCCN2CC(C)(C)C2)cc1Nc1nn(C)c2nc(Nc3cnn(C)c3)ncc12")
0.26
>>> recorded_number("Cc1ncc(C(=O)NCCN2CCCC2(C)C)cc1Nc1nn(C)c2nc(Nc3cnn(C)c3C)ncc12")
2.15

----------
Reported IC50 values for a set of compounds
Biological target: His6-TEV-PDGFRβ (557-1016) (Homo sapiens (Human))
Experiment: PDGFRβ HTRF Assay
Format: biochemical
experimental_readout: IC50 (pM)

>>> recorded_number("Cc1ncc(C(=O)NCCN2[C@H](C)CCC[C@@H]2C)cc1Nc1nn(C)c2cc(Nc3cnn(C)c3)ncc12")
1980
>>> recorded_number("Cc1ncc(C(=O)NCCC2CCCCC2)cc1Nc1nn(C)c2nc(Nc3ccc(CC(=O)O)nc3)ncc12")
760
>>> recorded_number("CC[C@H]1COCCN1CCNC(=O)c1cnc(C)c(Nc2nn(C)c3nc(Nc4cnn(C)c4)ncc23)c1")
420
>>> recorded_number("Cc1ncc(C(=O)NCCN2CCCC[C@H]2C)cc1Nc1nn(C)c2nc(Nc3cnn(C)c3)ncc12")
180

----------
Biological target: PDGFRβ (Rattus norvegicus (Rat))
Sequence (Q05030 whole entry, looked up): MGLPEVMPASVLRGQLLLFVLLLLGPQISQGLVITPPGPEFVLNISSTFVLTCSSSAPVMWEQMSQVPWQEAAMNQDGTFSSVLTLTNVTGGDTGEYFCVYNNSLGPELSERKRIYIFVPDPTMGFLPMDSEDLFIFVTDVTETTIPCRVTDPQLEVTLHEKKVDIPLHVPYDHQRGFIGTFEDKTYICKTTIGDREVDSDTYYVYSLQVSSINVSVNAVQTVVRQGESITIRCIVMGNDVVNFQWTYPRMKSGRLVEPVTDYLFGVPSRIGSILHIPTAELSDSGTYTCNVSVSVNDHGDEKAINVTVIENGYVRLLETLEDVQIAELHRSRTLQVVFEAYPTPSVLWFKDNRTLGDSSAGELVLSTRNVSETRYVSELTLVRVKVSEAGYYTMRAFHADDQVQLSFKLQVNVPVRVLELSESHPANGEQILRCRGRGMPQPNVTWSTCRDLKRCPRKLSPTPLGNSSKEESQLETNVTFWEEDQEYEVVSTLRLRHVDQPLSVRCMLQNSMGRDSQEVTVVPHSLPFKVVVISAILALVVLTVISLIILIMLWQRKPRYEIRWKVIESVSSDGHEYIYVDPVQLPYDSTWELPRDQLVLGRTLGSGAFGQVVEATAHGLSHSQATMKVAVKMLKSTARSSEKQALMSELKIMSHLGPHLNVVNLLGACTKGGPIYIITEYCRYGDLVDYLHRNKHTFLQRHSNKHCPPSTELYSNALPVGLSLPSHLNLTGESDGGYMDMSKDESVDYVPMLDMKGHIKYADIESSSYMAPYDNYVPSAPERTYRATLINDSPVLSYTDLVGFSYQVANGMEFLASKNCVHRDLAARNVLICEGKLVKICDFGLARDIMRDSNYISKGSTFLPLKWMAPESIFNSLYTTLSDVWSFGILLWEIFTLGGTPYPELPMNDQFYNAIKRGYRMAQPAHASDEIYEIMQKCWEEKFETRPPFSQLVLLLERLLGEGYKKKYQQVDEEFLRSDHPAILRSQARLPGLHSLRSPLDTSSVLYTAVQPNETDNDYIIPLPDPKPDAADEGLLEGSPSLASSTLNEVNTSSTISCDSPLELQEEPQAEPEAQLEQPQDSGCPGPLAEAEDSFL
Assay: PDGFRβ Cellular Assay (PDGFRb P-Y751 HTRF, PDGF-BB stimulated A10 cells)
Assay type: cell-based
pIC50: −log10 of the molar value.
experimental_readout: pIC50

>>> recorded_number("Cn1nc(Nc2cc(C(=O)NCCN3CCCC3(C)C)ccc2F)c2cnc(Nc3ccnnc3)nc21")
7.34
>>> recorded_number("Cc1ncc(C(=O)NCCN2CCCC23COC3)cc1Nc1nn(C)c2nc(Nc3cnn(C)c3)ncc12")
7.40
>>> recorded_number("COCC1CCCN1CCNC(=O)c1cnc(C)c(Nc2nn(C)c3nc(Nc4cnn(C)c4)ncc23)c1 (stereo not drawn)")
7.89
